- Procedure text: Single dose PK after 1 mg/kg intravenous dosing to rat
- Assay type: in vivo, Male Wister-Han Rats
- Measurement conditions: male, Wister-Han, plasma, iv, 1 mg/kg, IV 1 mpk
Measured property: C0 (nM)
Please state the figure in nM; there is no need to write the unit.

CCS(=N)(=O)c1nc(N)c2[nH]c(=O)n(Cc3ccc(Cl)cc3)c2n1 (single isomer, unassigned) [Example 70-A] :: 3050

So, CCS(=N)(=O)c1nc(N)c2[nH]c(=O)n(Cc3ccc(C)cc3)c2n1 (single isomer, unassigned) [Example 71-A] ? Its C0 was 1850

====

- System: CYP3A4
- Procedure text: Cytochrome P450 induction screening assay, mRNA induction in human cryopreserved hepatocytes
- Assay type: in vitro ADME
- Measurement conditions: 24 hours
Measured property: Relative induction of Positive control (10 μM Rifampicin) (%)
I only need the number, in %, no unit after it.

Answered examples (5):
CCS(=N)(=O)c1nc(N)c2[nH]c(=O)n(Cc3ccc(Cl)cc3)c2n1 (single isomer, unassigned) [Example 70-A] :: 0.42
CCCS(=N)(=O)c1nc(N)c2[nH]c(=O)n(Cc3ccc(F)cc3)c2n1 (stereo not drawn) :: −0.72
CCCS(=N)(=O)c1nc(N)c2[nH]c(=O)n(Cc3ccccc3)c2n1 (single isomer, unassigned) [Example 4-A] :: −0.63
CCS(=N)(=O)c1nc(N)c2[nH]c(=O)n(Cc3ccc(C)cc3)c2n1 (single isomer, unassigned) :: −0.10
CCCS(=N)(=O)c1nc(N)c2[nH]c(=O)n(Cc3ccccc3)c2n1 (single isomer, unassigned) [Example 4-B] :: −0.90

Pending molecule:
Documented Relative induction of Positive control (10 μM Rifampicin) (%) of CCS(=N)(=O)c1nc(N)c2[nH]c(=O)n(Cc3ccc(Cl)cc3)c2n1 (single isomer, unassigned) [Example 70-B] : −0.42

Hello, the source for this data is patent US11242345B2, in case you need it.
